Listing of recorded MIC by entry.
Tested on: Trichophyton rubrum
method.summary: Antifungal activity against Trichophyton rubrum CCC 113 after 48 hrs by broth microdilution technique
Assay type: functional
measurement.context: CCC 113, 48 h
Number in µg/mL, nothing else.

Some entries whose results are on file:
Clc1cccc2ccc(-c3ccncc3)nc12    31
Cc1ccc2nc(-c3ccncc3)ccc2c1    62
CC(=O)N1CCN(c2ccc(OCC3COC(Cn4ccnc4)(c4ccc(Cl)cc4Cl)O3)cc2)CC1 (stereo not given) [KETOCONAZOLE]    0.03
C(=C\c1ccc2ccccc2n1)/c1ccncc1    31

Q: What value of MIC on Trichophyton rubrum does Clc1ccc2nc(-c3ccncc3)ccc2c1 have?
Result: 125

---

Tested on: Nakaseomyces glabratus
method.summary: Antifungal activity against Candida glabrata CCC 115 after 48 hrs by broth microdilution technique
Format: functional
measurement.context: CCC 115, 48 h
result.type: MIC80 (µg/mL)
# unit: µg/mL | format: bare number

These solved cases illustrate the format of a correct answer.
C(=C\c1ccc2ccccc2n1)/c1ccncc1    62.5
c1ccc2nc(-c3ccncc3)ccc2c1    15.6
CCc1ccc2nc(-c3ccccn3)ccc2c1    62.5
C[C@@H]1[C@H](O)[C@@H](C)/C=C/C=C/C=C/C=C/C=C/C=C/C=C/[C@H](O[C@@H]2O[C@H](C)[C@@H](O)[C@H](N)[C@@H]2O)C[C@@H]2O[C@](O)(C[C@@H](O)C[C@@H](O)[C@H](O)CC[C@@H](O)C[C@@H](O)CC(=O)O[C@H]1C)C[C@H](O)[C@H]2C(=O)O    0.39

Q: Find the recorded MIC80 belonging to Fc1ccc2nc(/C=C/c3ccccn3)ccc2c1 and report it.
Result: 31.2

Q: Any idea what MIC80 was measured for Cc1ccc2nc(-c3ccncc3)ccc2c1 ?
Result: 15.6

---

Tested on: Aspergillus niger
method.summary: Antifungal activity against Aspergillus niger ATCC 9029 after 48 hrs by broth microdilution technique
Assay type: functional
measurement.context: ATCC 9029, 48 h
This listing pairs compounds with measured MIC.
Numeric only. Scale: µg/mL

The following compounds have reported results that may help.
c1ccc2nc(-c3ccncc3)ccc2c1    62
C(=C\c1ccc2ccccc2n1)/c1cccnc1    125

Please turn your attention to the following entry.
Q: Fill in the blank: the reported MIC of CN(C/C=C/C#CC(C)(C)C)Cc1cccc2ccccc12 is ____.
Result: 1.96

---

System: Candida tropicalis
method.summary: Antifungal activity against Candida tropicalis CCC 131 after 48 hrs by broth microdilution technique
Assay type: functional
measurement.context: CCC 131, 48 h
result.type: MIC80 (µg/mL)
Answer with a number only, understood to be in µg/mL.

Completed entries (count: 2):
CCc1ccc2nc(-c3ccccn3)ccc2c1    31.2
c1ccc2nc(-c3ccncc3)ccc2c1    31.2

Q: // map Cc1ccc2nc(-c3ccncc3)ccc2c1 to recorded MIC80 (system: Candida tropicalis)
Result: 125

---

Test system: Trichophyton rubrum
method.summary: Antifungal activity against Trichophyton rubrum CCC 113 after 48 hrs by broth microdilution technique
Format: functional
measurement.context: CCC 113, 48 h
Please use t for MIC under 60 µg/mL and f for everything else, ties included.

Example cases with answers are listed next.
Clc1ccc2nc(/C=C/c3cccnc3)ccc2c1    f
CN(C/C=C/C#CC(C)(C)C)Cc1cccc2ccccc12    t
c1ccc2nc(-c3ccncc3)ccc2c1    f
Fc1ccc2nc(-c3cccnc3)ccc2c1    f
C[C@@H]1[C@H](O)[C@@H](C)/C=C/C=C/C=C/C=C/C=C/C=C/C=C/[C@H](O[C@@H]2O[C@H](C)[C@@H](O)[C@H](N)[C@@H]2O)C[C@@H]2O[C@](O)(C[C@@H](O)C[C@@H](O)[C@H](O)CC[C@@H](O)C[C@@H](O)CC(=O)O[C@H]1C)C[C@H](O)[C@H]2C(=O)O    t
CCc1ccc2nc(-c3ccccn3)ccc2c1    f

Q: Record Clc1ccc2nc(/C=C/c3ccncc3)ccc2c1 : is its MIC strictly below 60 µg/mL?
Result: f

Q: Please state whether MIC is below 60 µg/mL for C(=C\c1ccc2ccccc2n1)/c1cccnc1
Result: f

Q: Consider Fc1ccc2nc(/C=C/c3ccccn3)ccc2c1 . Does its MIC lie strictly below 60 µg/mL?
Result: f

Q: API: query returns whether the compound falls strictly under 60 µg/mL in MIC. Query: Clc1ccc2nc(-c3cccnc3)ccc2c1
Result: t
